- Test system: MDA-N
- assay: NCI tumour cell line growth inhibition, 48 h
reportedMetric: TGI

Previously resolved entries follow.
compound	measuredTarget	TGI
CCCCOP(C)(=O)C(NC(=O)OCC)(C(F)(F)F)C(F)(F)F (centres undefined)	MDA-N	> 100 µM
COC(=O)C1(SC)C2CCC3C2CCC31 (centres undefined)	MDA-N	> 100 µM
CCCCOC(=O)C1CC[C@H]2[C@@H]3CCc4cc(OC(=O)c5cccc6c(=O)c7ccccc7[nH]c56)ccc4[C@H]3CC[C@]12C (some centres undefined)	MDA-N	14.5 µM
CC(=O)OC1[C@H](OC(C)=O)C2=C(C)[C@@H](OC(C)=O)C[C@@]2(C(C)(C)O)[C@@H](OC(C)=O)[C@H]2[C@@]1(C)[C@@H](OC(C)=O)CC(OC(C)=O)[C@]21CO1 (some centres undefined)	MDA-N	> 100 µM

Exam item: // lookup TGI for O=C(O)c1c(Br)c(Br)c(Br)c(Br)c1C1c2ccc(O)cc2Oc2cc(O)ccc21
Marked response: > 100 µM

###

- Tested on: UACC-257 melanoma
- assay: NCI tumour cell line growth inhibition, 48 h
reportedMetric: GI50

Previously resolved entries follow.
molecule	GI50
NC(CSSCC(N)C(=O)O)C(=O)O (configuration not stated)	> 100 µM
Cc1[nH]c2cc(F)ccc2c1-c1nc2c3cccnc3c3ncccc3c2[nH]1	0.228 µM
O=C1c2cccnc2C(=O)c2c1c(C(=O)OCCCN1CCCCC1)c1ccccn21	< 0.01 µM
NC(=O)c1sc(-n2cnc3cc(C(F)(F)F)ccc32)cc1OCc1ccccc1Br	> 25 µM
COc1ccc(CCN2CCC(CN(C)Cc3cnn(-c4ccccc4)c3)CC2)cc1	2.59 µM

Exam item: // lookup GI50 for Cl.Fc1c[c-]c(-c2ccccn2)c(F)c1.[Pt].c1ccc([PH+](C[PH+](c2ccccc2)c2ccccc2)c2ccccc2)cc1
Marked response: 0.269 µM

Exam item: // lookup GI50 for C[C@@H](CO)NC(=O)c1cc(-c2ccc(Cl)cc2)nn(-c2cnn(C)c2)c1=O
Marked response: 30.6 µM

###

- System: IGROV1 ovarian
- assay: NCI tumour cell line growth inhibition, 48 h
reportedMetric: TGI

compound	observed
COc1c(N2CCN(CN3C(=O)C(=O)c4cc(Cl)ccc43)C(C)C2)c(F)cc2c(=O)c(C(=O)O)cn(C3CC3)c12 (centres undefined)	> 100 µM
O=C1CN(c2cccc(Cl)c2)C(=O)CN1NCNN1CC(=O)N(c2cccc(Cl)c2)CC1=O	> 100 µM
C=C1C(=O)O[C@H]2C[C@@H]1[C@@H](O)[C@H](O)[C@@H](C)CCCC(C)=CCC[C@@]2(C)O	> 100 µM
Cc1cccc(CC(Cc2ccc(C)cc2C(=O)O)C(=O)O)c1 (centres undefined)	> 100 µM
CC(C)c1ccccc1SCc1cc(=O)cc(CSc2ccccc2C(C)C)o1	33.1 µM
O=C(CC1C=Cc2ccccc2N1C(=O)c1ccccc1)c1ccccc1 (centres undefined)	> 100 µM
Cc1nc2sc(C(=O)c3ccc(Cl)cc3)c(N)c2c(-c2ccccc2Cl)c1C(=O)Nc1ccccc1	> 70.5 µM
[N-]=[N+]=CC(=O)OCCCCl	> 100 µM

Exam item: // lookup TGI for CC(C)(C)OC(=O)NCc1cccc(N=C=S)c1
Marked response: 41.8 µM

Exam item: // lookup TGI for O=c1[nH]c(=O)n(COCc2ccccc2)cc1Nc1ccc(Br)cc1
Marked response: > 100 µM

Exam item: // lookup TGI for CCOC(=O)c1c(SC(=O)c2ccc(OC)cc2)n(-c2ccccc2)c(=S)n(-c2ccccc2)c1=O
Marked response: 38 µM

Exam item: // lookup TGI for COc1ccccc1C(=O)NCC1CCCN2CCCCC12 (centres undefined)
Marked response: > 100 µM

Exam item: // lookup TGI for COc1ccc(-c2c3c(nc4n[nH]c(-c5ccc(Cl)cc5)c24)-c2ccccc2C(=O)C3=O)cc1
Marked response: 3.22 µM

Exam item: // lookup TGI for CC(C)(NC(=O)OCc1ccccc1)C(=O)OC(=O)C(C)(C)NC(=O)OCc1ccccc1
Marked response: > 100 µM

Exam item: // lookup TGI for CCCCCCCCCCCc1c(O)c(=O)c2c(oc3c(=O)c(CCCCCCCCCCC)c(O)c(=O)c3n2-c2ccc(N(C)C)cc2)c1=O
Marked response: 48.1 µM

Exam item: // lookup TGI for COc1cc(-c2c3c(cc4c2OCO4)[C@@H](Nc2ccc(-c4ccc(-c5ccc(N[C@@H]6c7cc8c(cc7C(c7cc(OC)c(O)c(OC)c7)[C@H]7C(=O)OC[C@H]67)OCO8)cc5)cc4)cc2)[C@H]2COC(=O)[C@@H]2C3)cc(OC)c1O (some centres undefined)
Marked response: 2.68 µM

Exam item: // lookup TGI for CC1OC(CC(=O)O)CC2=C1C(=O)c1c(O)cccc1C2=O (centres undefined)
Marked response: 0.721 µM

Exam item: // lookup TGI for CCC1(CN(C)C)CC/C(=C\c2ccc(OC)c(OC)c2)C1=O (centres undefined)
Marked response: > 100 µM

Exam item: // lookup TGI for COc1ccc(NCC(=O)Nn2c(-c3ccccc3)nc3ccccc3c2=O)cc1
Marked response: > 100 µM
